test system: Plasmodium berghei; assay: Screen against P. berghei liver stage (PbLuc), transformed with Luciferase, at 10uM; type: functional, HepG2; settings: tested at 10 uM
The campaign covered roughly 69,000 compounds. About 8,600 (12%) showed an effect of 50% or more. The list comes from a sample in which strong results are over-represented; it also holds close analogues and randomly drawn compounds.
Give INHIBITION for every item shown.
Entry rule: numbers only, all in %.

The value of INHIBITION measured for the compound "CC(C)C(=O)N1CCC(C)(c2cc[nH]n2)CC1" turned out to be -16.9

The value of INHIBITION measured for the compound Cc1noc(C(C)N(C)Cc2ccco2)n1 (stereo unspecified) turned out to be -33.4

The value of INHIBITION measured for the compound "CC(C)CN1C[C@@H]2C(=O)N(C)C3(CCN(C(=O)C(C)C)CC3)[C@@H]2C1" turned out to be -40.5

The value of INHIBITION measured for the compound "COCCC(=O)N1C[C@@H](c2cccc(OC)c2)[C@@]2(CCCCC(=O)N2)C1" turned out to be 3.48

The value of INHIBITION measured for the compound "CN1[C@@H]2CC[C@H]1CN(C(=O)c1nnc3n1CCCC3)CC2" turned out to be -151

The value of INHIBITION measured for the compound "O=C(NC1CC1)N1CC[C@H](OCC2CC2)[C@@H]1Cc1cccnc1" turned out to be 29

The value of INHIBITION measured for the compound O=C(NCc1cc(-c2ccccc2)no1)NCC1CCCO1 (stereo unspecified) turned out to be 1.06

The value of INHIBITION measured for the compound "CCOc1ccc(CCCC(=O)N2CC[C@H](NC(C)=O)C2)cc1C" turned out to be 16

The value of INHIBITION measured for the compound COCC(C)NC(=O)CN1CCCC1 (stereo unspecified) turned out to be -9.39

The value of INHIBITION measured for the compound Cc1cnn(CC2CCCN2C(=O)c2cc3c(F)cccc3[nH]2)c1 (stereo unspecified) turned out to be 24.6

The value of INHIBITION measured for the compound Cn1cc(C2CCCN2C(=O)COCCOc2ccccc2)cn1 (stereo unspecified) turned out to be 44.1
